System: human APOE RNA
Assay: Potency (dose response, ED50) in APOE C57BL/6NTac-Apoeem7250 knock-in mice, 4 weeks (Example 14)
Assay type: in vivo
Conditions: cortex, ICV dose 10 μg
Strand notation (5' to 3'): a small letter for the sugar, then the base; units joined by * are phosphorothioate-linked, units joined directly phosphodiester-linked; [ ] holds rarer units or linkages, { } end groups; capitals alone tell only the bases. [ms] = mesyl phosphoramidate linkage; e = 2'-O-(2-methoxyethyl) (MOE); k = constrained ethyl (cEt); [5mC] = 5-methylcytosine; d = 2'-deoxy (DNA)
metric.name: APOE RNA (% control) Cortex
Response body: numeric value in % control, unit text excluded.

Entry 1778130: modified oligonucleotide complementary to human APOE RNA (eA*e[5mC]eTeTeG*kG*dT*dG[ms]dA[ms]dA*dT*d[5mC]*dT*dT*dT*dA[ms]kTkT*eA*eA; antisense) [compound 1778130] ; APOE RNA (% control) Cortex = 123

Entry 1746809 (k[5mC]*dT[ms]kT*dG[ms]kG*dT[ms]dG[ms]dA[ms]dA[ms]dT*d[5mC]*dT*dT*dT*dA[ms]dT*dT[ms]kA*kA*kA; antisense) [Compound 1746809] ; APOE RNA (% control) Cortex = 98

Entry 1778131: modified oligonucleotide complementary to human APOE RNA (eA*e[5mC]eTeTeGkG*dT*dG[ms]dA[ms]dA*dT*d[5mC]*dT*dT*dT*dA[ms]kTkT*eA*eA; antisense) [compound 1778131] ; APOE RNA (% control) Cortex = 115

Entry 1785598: modified oligonucleotide complementary to human APOE RNA (k[5mC]*kT*kT*dG[ms]dG[ms]dT[ms]dG[ms]dA[ms]dA[ms]dT*d[5mC]*dT*dT*dT*dA*dT[ms]kT*kA*dA[ms]kA; antisense) [compound 1785598] ; APOE RNA (% control) Cortex = 104
